assay-system: MGL (Rattus norvegicus)
Construct: one g rat brain was homogenized using a Polytron homogenizer; from tissue; host or cells: rat brain homogenate
Sequence (Q8R431 whole entry): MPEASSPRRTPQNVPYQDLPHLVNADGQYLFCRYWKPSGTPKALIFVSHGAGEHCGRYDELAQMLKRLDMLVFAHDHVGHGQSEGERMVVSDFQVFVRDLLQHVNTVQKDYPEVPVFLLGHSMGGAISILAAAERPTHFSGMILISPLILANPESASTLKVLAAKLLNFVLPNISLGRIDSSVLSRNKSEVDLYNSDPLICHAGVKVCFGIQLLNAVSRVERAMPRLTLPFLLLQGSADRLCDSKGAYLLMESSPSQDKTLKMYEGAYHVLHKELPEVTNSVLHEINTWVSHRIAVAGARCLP
method-summary: 2-AG accumulation assay in rat brain homogenate
Format: biochemical
test-settings: rat brain homogenate; compound 1 μM; 2-AG accumulation as percent of vehicle; read-out: Rat Brain 2AG % VehCntrl (%) @ 1 μM
2-AG accumulation, % of vehicle control at 1 µM below 400% gives Not satisfied; 2-AG accumulation, % of vehicle control at 1 µM at or above it gives Satisfied.

See these solved cases before continuing.
Cc1ccc2sc(C(=O)N3CC(N4CCN(C(=O)c5nccs5)CC4)C3)c(C(F)(F)F)c2c1    Satisfied
O=C(c1ccc(OCc2ccc3ccccc3n2)cc1)N1CC(N2CCN(C(=O)C(F)(F)F)CC2)C1    Not satisfied
N#Cc1ccc(-c2ccc(C(=O)N3CC(N4CCN(C(=O)c5nccs5)CC4)C3)cc2)cc1    Satisfied
O=C(c1ccc2c(c1)CCCN2S(=O)(=O)c1ccccc1)N1CC(N2CCN(C(=O)c3nccs3)CC2)C1    Satisfied
O=C(c1cc(F)cc(-c2ccccc2)c1)N1CC(N2CCN(C(=O)c3nccs3)CC2)C1    Not satisfied

Is reported 2-AG accumulation, % of vehicle control at 1 µM greater than or equal to 400% here: O=C(c1ccccc1)N1CCN(C2CN(C(=O)c3ccc(Sc4cccc(Cl)c4)cc3)C2)CC1 Not satisfied

Is reported 2-AG accumulation, % of vehicle control at 1 µM greater than or equal to 400% here: O=C(c1ccc(OCc2ccncc2)cc1)N1CC(N2CCN(C(=O)c3nccs3)CC2)C1 Not satisfied

Is reported 2-AG accumulation, % of vehicle control at 1 µM greater than or equal to 400% here: O=C(c1ccc2c(ccn2-c2ccc(C(F)(F)F)cc2)c1)N1CC(N2CCN(C(=O)c3ccns3)CC2)C1 Satisfied

Is reported 2-AG accumulation, % of vehicle control at 1 µM greater than or equal to 400% here: O=C(c1ccc(-c2nc(-c3ccc(F)cc3)cs2)cc1)N1CC(N2CCN(C(=O)c3nccs3)CC2)C1 Satisfied

Is reported 2-AG accumulation, % of vehicle control at 1 µM greater than or equal to 400% here: O=C(c1ccccc1)N1CCN(C2CN(C(=O)c3ccc4c(ccn4-c4cc(F)c(F)c(F)c4)c3)C2)CC1 Not satisfied

Is reported 2-AG accumulation, % of vehicle control at 1 µM greater than or equal to 400% here: O=C(c1cscn1)N1CCN(C2CN(C(=O)c3cccc4nc(-c5cccc(F)c5)oc34)C2)CC1 Not satisfied

Is reported 2-AG accumulation, % of vehicle control at 1 µM greater than or equal to 400% here: O=C(c1ccc2c(c1)CCCN2S(=O)(=O)c1cccc(C(F)(F)F)c1)N1CC(N2CCN(C(=O)c3nccs3)CC2)C1 Satisfied

###

assay-system: mutant MGL (Homo sapiens, UniProt Q99685, L169S/L176S)
method-summary: MGL ThermoFluor assay - mutant
Type: binding
test-settings: ThermoFluor thermal stability binding assay, read-out: MGL mutant ThermoFluor Kd
pKd: −log10 of the molar value.
pKd below 8 gives No; pKd at or above it gives Yes.

See these solved cases before continuing.
O=C(c1ccccc1)N1CCN(C2CN(C(=O)c3ccc(OCc4cccnc4)c(Cl)c3)C2)CC1    No
O=C(c1ccc(-c2ccc(F)cc2)cc1)N1CC(N2CCN(C(=O)c3cscn3)CC2)C1    No
O=C(c1ccccc1)N1CCN(C2CN(C(=O)c3ccc(OCc4cccc(Cl)c4Cl)c(F)c3)C2)CC1    No
O=C(c1nccs1)N1CCN(C2CN(C(=O)c3cccc4nc(Cc5ccccc5F)[nH]c34)C2)CC1    No
O=C(c1cc2ccc(C(F)(F)F)cc2s1)N1CC(N2CCN(C(=O)c3nccs3)CC2)C1    Yes

Is reported pKd greater than or equal to 8 here: O=C(c1nccs1)N1CCN(C2CN(C(=O)c3sc4cc(-c5ccccc5)ccc4c3Cl)C2)CC1 Yes

Is reported pKd greater than or equal to 8 here: CS(=O)(=O)N1CCCc2cc(C(=O)N3CC(N4CCN(C(=O)c5nccs5)CC4)C3)ccc21 No

Is reported pKd greater than or equal to 8 here: O=C(c1ccccc1)N1CCc2cc(C(=O)N3CC(N4CCN(C(=O)c5nccs5)CC4)C3)ccc2C1 No

Is reported pKd greater than or equal to 8 here: O=C(c1ccc(OCc2ccc(Cl)c(Cl)c2)c(Cl)c1)N1CC(N2CCN(C(=O)c3nccs3)CC2)C1 Yes

###

assay-system: purified wild type MGL (wt-MGLL 6H-11-313) (Homo sapiens)
Sequence (Q99685 1-303): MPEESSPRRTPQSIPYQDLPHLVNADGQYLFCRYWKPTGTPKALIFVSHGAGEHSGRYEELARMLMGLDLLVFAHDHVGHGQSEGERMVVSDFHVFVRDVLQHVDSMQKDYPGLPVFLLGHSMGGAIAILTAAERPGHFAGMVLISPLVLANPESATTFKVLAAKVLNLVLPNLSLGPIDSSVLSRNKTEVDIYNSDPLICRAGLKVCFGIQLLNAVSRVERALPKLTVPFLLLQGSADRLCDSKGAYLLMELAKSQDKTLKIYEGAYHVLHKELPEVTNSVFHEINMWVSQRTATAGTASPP
Entries and their measured IC50 follow.
Answer format: numeric, nM implied, no suffix.

Take a look at these entries with their results.
O=C(c1ccc[nH]1)N1CCN(C2CN(C(=O)c3nn(-c4ccc(Cl)cc4Cl)c4c3CCC/C4=C\c3ccc(Cl)cc3)C2)CC1    6
CC(C)(C)c1cc(C(=O)N2CC(N3CCN(C(=O)c4nccs4)CC3)C2)cc(C(C)(C)C)c1    902
O=C(c1ccc2[nH]c(CCc3ccccc3)nc2c1)N1CC(N2CCN(C(=O)c3nccs3)CC2)C1    111
N#Cc1ccc(N2CCC(C(=O)N3CC(N4CCN(C(=O)c5cscn5)CC4)C3)CC2)cc1    12700
Cc1cc(C(=O)N2CC(N3CCN(C(=O)c4nccs4)CC3)C2)sc1Br    181
O=C(c1ccc(-c2ccc(C(F)(F)F)s2)cc1)N1CCN(C2CN(C(=O)c3ccc[nH]3)C2)CC1    47
O=C(c1ccc2cn(Cc3ccc(F)cc3)nc2c1)N1CC(N2CCN(C(=O)c3nccs3)CC2)C1    28
O=C(c1ccccc1)N1CCN(C2CN(C(=O)c3cc4c(C(F)(F)F)cccc4s3)C2)CC1    308
O=C(c1ccc(OCc2ccccn2)c(Cl)c1)N1CC(N2CCN(C(=O)c3nccs3)CC2)C1    50.6
O=C(c1cscn1)N1CCN(C2CN(C(=O)c3nn(-c4ccc(Cl)cc4Cl)c4c3CCCC4)C2)CC1    6030

Tell us which IC50 value is on record for O=C(c1cnc2cc(Cl)c(Cl)cc2c1)N1CC(N2CCN(C(=O)c3nccs3)CC2)C1 324

Tell us which IC50 value is on record for COc1cc(-n2ccc3cc(C(=O)N4CC(N5CCN(C(=O)c6nccs6)CC5)C4)ccc32)ccn1 14

Tell us which IC50 value is on record for O=C(c1nccs1)N1CCN(C2CN(C(=O)c3ccccc3Nc3cccc(C(F)(F)F)c3)C2)CC1 697

Tell us which IC50 value is on record for O=C(c1ccc2c(c1)ncn2-c1ccc(C(F)(F)F)cc1)N1CC(N2CCN(C(=O)c3cscn3)CC2)C1 316

Tell us which IC50 value is on record for Cc1cc(-c2ccccc2)ccc1C(=O)N1CC(N2CCN(C(=O)c3nccs3)CC2)C1 8

Tell us which IC50 value is on record for O=C(c1ccc2c(c1)C(Cc1cccc(C(F)(F)F)c1)(Cc1cccc(C(F)(F)F)c1)C(=O)N2)N1CC(N2CCN(C(=O)c3nccs3)CC2)C1 7760

Tell us which IC50 value is on record for Cc1c(Cc2ccc(C(F)(F)F)cc2)cccc1C(=O)N1CC(N2CCN(C(=O)c3ccc[nH]3)CC2)C1 161

Tell us which IC50 value is on record for O=C(c1ccccc1)N1CCN(C2CN(C(=O)c3ccc4c(cnn4-c4ccc(C(F)(F)F)cc4)c3)C2)CC1 51

###

assay-system: mutant MGL (Homo sapiens, UniProt Q99685, L169S/L176S)
method-summary: MGL ThermoFluor assay - mutant
Assay type: binding
test-settings: ThermoFluor concentration-response, read-out: MGL mutant ThermoFluor Kd
assay-metric: Kd (nM)
Answer format: numeric, nM implied, no suffix.

Tell us which Kd value is on record for O=C(c1ccccc1)N1CCN(C2CN(C(=O)c3ccc(-c4ccccc4)cc3F)C2)CC1 [Cpd 614] 66

Tell us which Kd value is on record for O=C(c1ccc(CS(=O)(=O)c2cccc(C(F)(F)F)c2)cc1)N1CC(N2CCN(C(=O)c3nccs3)CC2)C1 [Cpd 976] 1840

Tell us which Kd value is on record for O=C(c1ccccc1)N1CCN(C2CN(C(=O)c3cncc(-c4ccccc4)c3)C2)CC1 [Cpd 80] 49500

Tell us which Kd value is on record for Cc1nc(-c2cccc(C(F)(F)F)c2)sc1C(=O)N1CC(N2CCN(C(=O)c3cscn3)CC2)C1 [Cpd 485] 25.7

Tell us which Kd value is on record for Cc1nc2cc(C(=O)N3CCN(C4CN(C(=O)c5ccccc5)C4)CC3)ccc2n1C1CCCCC1 [Cpd 523] 686

Tell us which Kd value is on record for O=C(c1ccccc1)N1CCN(C2CN(C(=O)c3ccc(Oc4ccccn4)c(F)c3)C2)CC1 [Cpd 537] 3330

Tell us which Kd value is on record for C/C(=C\c1ccc(Cl)cc1)c1c(C)c(C(=O)N2CC(N3CCN(C(=O)c4ccc[nH]4)CC3)C2)nn1-c1ccc(Cl)cc1Cl [Cpd 1011] 124
